Experiment: Metabolism and pharmacokinetics of ZB716 in rat plasma after oral dosing
Settings: female, Sprague-Dawley, rat, plasma, po, 10 mg/kg
Property label: k el

[[record]]
molecule = "C[C@]12CC[C@@H]3c4ccc(B(O)O)cc4C[C@@H](CCCCCCCCC[S+]([O-])CCCC(F)(F)C(F)(F)F)[C@H]3[C@@H]1CC[C@@H]2O (stereo partly shown)"
result = "1.11e-05 s⁻¹"


----------
Experiment: Metabolism and pharmacokinetics of ZB716 in rat plasma after oral dosing
Conditions: female, Sprague-Dawley, rat, plasma, po, 10 mg/kg
Property label: concentration at 1 h

[[record]]
compound = "C[C@]12CC[C@@H]3c4ccc(B(O)O)cc4C[C@@H](CCCCCCCCC[S+]([O-])CCCC(F)(F)C(F)(F)F)[C@H]3[C@@H]1CC[C@@H]2O (stereo partly shown)"
property_label = "concentration at 1 h"
result = "130 ng/mL"


----------
Experiment: Metabolism and pharmacokinetics of ZB716 in rat plasma after oral dosing
Details: female, Sprague-Dawley, rat, plasma, po, 10 mg/kg
Property label: AUC(0-t)

[[record]]
compound = "C[C@]12CC[C@@H]3c4ccc(B(O)O)cc4C[C@@H](CCCCCCCCC[S+]([O-])CCCC(F)(F)C(F)(F)F)[C@H]3[C@@H]1CC[C@@H]2O (stereo partly shown)"
result = "1300 ng·h/mL"


----------
Assay: Metabolism and pharmacokinetics of ZB716 in rat plasma after oral dosing
Settings: female, Sprague-Dawley, rat, plasma, po, 10 mg/kg
Property label: concentration at 48 h (ng/mL)

[[record]]
compound = "C[C@]12CC[C@@H]3c4ccc(B(O)O)cc4C[C@@H](CCCCCCCCC[S+]([O-])CCCC(F)(F)C(F)(F)F)[C@H]3[C@@H]1CC[C@@H]2O (stereo partly shown) [ZB716]"
quantitative_readout = 6.91


----------
Test: Metabolism and pharmacokinetics of ZB716 in rat plasma after oral dosing
Details: female, Sprague-Dawley, rat, plasma, po, 10 mg/kg
Property label: concentration at 4 h (ng/mL)

[[record]]
compound = "C[C@]12CC[C@@H]3c4ccc(B(O)O)cc4C[C@@H](CCCCCCCCC[S+]([O-])CCCC(F)(F)C(F)(F)F)[C@H]3[C@@H]1CC[C@@H]2O (stereo partly shown)"
unit = "ng/mL"
quantitative_readout = 87.1


----------
Experiment: Metabolism and pharmacokinetics of ZB716 in rat plasma after oral dosing
Details: female, Sprague-Dawley, rat, plasma, po, 10 mg/kg
Property label: Tmax (h)

[[record]]
compound = "C[C@]12CC[C@@H]3c4ccc(B(O)O)cc4C[C@@H](CCCCCCCCC[S+]([O-])CCCC(F)(F)C(F)(F)F)[C@H]3[C@@H]1CC[C@@H]2O (stereo partly shown)"
quantitative_readout = 2


----------
Assay: Metabolism and pharmacokinetics of ZB716 in rat plasma after oral dosing
Conditions: female, Sprague-Dawley, rat, plasma, po, 10 mg/kg
Property label: MRT inf (h)

[[record]]
molecule = "C[C@]12CC[C@@H]3c4ccc(B(O)O)cc4C[C@@H](CCCCCCCCC[S+]([O-])CCCC(F)(F)C(F)(F)F)[C@H]3[C@@H]1CC[C@@H]2O (stereo partly shown)"
property_label = "MRT inf"
unit = "h"
quantitative_readout = 18.4

